Cited source for all entries: PubChem BioAssay (NCI)

tested on: KM12 colon; experiment: NCI tumour cell line growth inhibition, 48 h
Reported TGI is given for each of the following compounds.

Prompt: // fetch TGI given entry CN/N=C(\C)CC(=O)Nc1cccc(Cl)c1C
Response: > 100 µM

Prompt: Give me measured TGI, please, for this compound: Cn1ncc2c(NCCc3ccccc3)nc(Cl)nc21
Response: 85.5 µM

Prompt: Fill in reported TGI for this entry: Nc1nc(Cl)cc(Nc2ccc3c(c2)CCC3)n1
Response: > 100 µM

Prompt: For the compound C[C@]12CC[C@H]3[C@@H](C[C@@H]4SC(Nc5cccc(F)c5)=N[C@@]45CC(=O)CC[C@]35C)[C@@H]1CCC2=O , give its measured TGI value.
Response: 12.4 µM

###

tested on: MOLT-4 leukemia; assay: NCI tumour cell line growth inhibition, 48 h
Reported values of TGI for individual entries

Use these answered entries as a reference point.
O=C(Nc1cc(C(F)(F)F)ccc1Cl)C(=O)C(C(=O)c1ccc2ccccc2c1)C1OC(=O)c2ccccc21 (stereo unspecified): 9.16 µM
C=C(C)C1CC[C@]2(C(=O)O)CCC3(C)[C@H](CCC4[C@@]5(C)CC[C@H](OC6OC(CO)C(O)C6OC6OC(C)C(O)C(O)C6O)[C@@](C)(CO)C5CC[C@]43C)C12 (stereo partly specified): > 100 µM
CC(C)C1OCC(CO)CO1 (stereo unspecified): > 100 µM

Prompt: Fill in TGI for record CC1=CC(C)C(O)C(C)/C=C/C(O)C/C=C(/C)C(=O)CC(O)C(C)\C=C/C=C/C=C\C(=O)NC2=C(O)c3cc(C)c(O)c(c3C(=O)C2=O)C1=O (stereo unspecified)
Response: > 100 µM

Prompt: Provide one value: measured TGI of O=C1C=C(Br)C(=O)C(Br)=C1
Response: > 86.2 µM

Prompt: Name the recorded TGI of the molecule listed here: CCCCCCCCCCCCCCCCCCNc1ccn(C2OC(CO)C(OP(=O)(O)OCC3CCC(n4ccc(N)nc4=O)O3)C2O)c(=O)n1 (stereo unspecified)
Response: 10.2 µM

Prompt: Look up and report measured TGI for this entry: Cc1[nH]n(-c2ccccc2)c(=S)c1C(=O)c1ccccc1
Response: 79.4 µM

Prompt: Name the recorded TGI of the item COc1ccc(/C=N/NC(=O)O)cc1 in your answer.
Response: > 100 µM

###

system: OVCAR-4 ovarian; test: NCI tumour cell line growth inhibition, 48 h
property: TGI

Some solved entries appear below for comparison.
Cc1ccnc2c1NC(=O)c1cccnc1N2C1CC1: > 100 µM
c1ccc2cc3n[se]nc3cc2c1: > 100 µM
C=C(C)C1CC[C@]2(C(=O)O)CCC3(C)[C@H](CCC4[C@@]5(C)CC[C@H](OC6OC(CO)C(O)C6OC6OC(C)C(O)C(O)C6O)[C@@](C)(CO)C5CC[C@]43C)C12 (stereo not given in full): > 100 µM
CC(=O)OCCn1c(Cc2ccc([N+](=O)[O-])cc2)nn(C(C)=O)c1=O: > 100 µM
O=S(=O)(Nc1ccccc1S(=O)(=O)c1ccccc1)c1ccccc1: > 100 µM
O=C(Nc1cc(C(F)(F)F)ccc1Cl)C(=O)C(C(=O)c1ccc2ccccc2c1)C1OC(=O)c2ccccc21 (stereo not given): > 59.3 µM
CCNC1CC(C(C)(C)NCC)CC=C1C (stereo not given): > 100 µM
O=[N+]([O-])C(=C1Nc2ccccc2N1)C(Cl)=C(Cl)Cl: > 100 µM

Prompt: Indicate its recorded TGI; the compound in question is COCCOC(C)C(/C=N/NC(N)=S)=N/NC(N)=S (stereo not given)
Response: > 100 µM

Prompt: Return reported TGI. Input compound: O=[N+]([O-])c1cc(Cl)ccc1S(=O)(=O)c1ccccc1
Response: > 100 µM

###

# reported GI50; entries follow
system: K-562 leukemia; assay: NCI tumour cell line growth inhibition, 48 h

Prompt: Provide only the value of recorded GI50 for CN(C)CCCC1(c2ccc(F)cc2)OCc2cc(-c3ccc4cc[nH]c4c3)ccc21 (stereo not drawn)
Response: 1930 nM

Prompt: Specify reported GI50 for the compound shown: COc1ccc(OC)c(-c2nc3sccn3c2/C=C2/C(=O)Nc3ccccc32)c1
Response: 490 nM

Prompt: Give a short answer stating reported GI50 for O=C1c2cccc3c(N4CCN(c5ccc6c7c(cccc57)C(=O)N(CCN5CCNCC5)C6=O)CC4)ccc(c23)C(=O)N1CCN1CCNCC1 .
Response: 2780 nM

###

tested on: SF-295 CNS; assay: NCI tumour cell line growth inhibition, 48 h; in the data active = GI50 below about 0.43 µM; inactive = the rest
Parameter call: string, one of True = active, False = inactive

CCOC(=O)C(=Cc1ccc(Br)cc1)C(=O)OCC: False
CN(C)CCCC1(c2ccc(F)cc2)OCc2cc(-c3ccc4cc[nH]c4c3)ccc21 (configuration not stated): False
N#CC1=C(N)Oc2c(sc3c(F)cccc23)C1c1ccc([N+](=O)[O-])cc1 (configuration not stated): True
COc1ccc2cc(C(=O)/C=C/c3ccc(OC)c(OC)c3)ccc2c1: False

Next up:
Prompt: What call does the record list for CCOC(=O)c1c(C)c2c(n1C)CSc1cc(S(=O)(=O)c3ccccc3)c(=O)[nH]c1-2 ?
Response: False

###

Reported TGI values are given for each entry in this list.
tested on: SF-539 CNS; assay: NCI tumour cell line growth inhibition, 48 h

These recorded examples may help you get a feel for the data.
C[C@H](CCc1nc(C#N)c(N)o1)[C@H]1CC[C@H]2[C@@H]3[C@@H](O)CC4C[C@@H](O)CC[C@]4(C)[C@H]3C[C@@H](O)[C@]12C (stereo partly drawn): 59.5 µM
Nc1nc(Cl)c2ncn(Cc3ccccc3CCl)c2n1: 38.2 µM
C=C1C(=O)C=C2C=C3C(=O)C(C)(C)C[C@]3(O)C12C (stereo partly drawn): > 57.5 µM
CC1=NN(C(=O)c2ccc(Cl)cc2)C(=O)/C1=C/c1cccc(O)c1: > 100 µM

Prompt: Please report TGI for the following compound: CNC(=O)N(CCC#N)CCN(CCN(C(=O)NC)c1ccccc1)C(=O)NC
Response: > 100 µM

###

system: SK-MEL-2 melanoma; assay: NCI tumour cell line growth inhibition, 48 h
property: log10(TGI) (log10 of the value in µM)
Recall that a logarithmic scale is used here: each number is log10 of TGI in µM.

Worked examples follow.
Cc1ccc2c(c1)NC(=O)C(N=[N+]=[N-])(c1ccccc1)C2=O (stereo not given): 1.56
O=C1c2c(Br)sc(Br)c2[C@H]2NC(=S)O[C@@H]12: 1.52

Prompt: Find the measured log10(TGI) of CCC(=S)N(C)O and report it.
Response: 1.94

Prompt: Using known records, supply log10(TGI) for CC(C)(C)C1CCC2c3c([nH]c4ccccc34)C3C(=O)N(c4ccc(Br)cc4)C(=O)C3C2C1 (stereo not given)
Response: 1.74

Prompt: Read off the recorded log10(TGI) for Clc1ccc2c(NCCNc3nc(-c4ccccc4)cc(-c4ccccc4)n3)ccnc2c1
Response: 0.56

Prompt: For the compound Cc1oc2c(c1C(=O)c1ccccc1)C(=O)c1ccccc1C2=O , give its reported log10(TGI).
Response: 0.96

Prompt: Answer with the recorded log10(TGI) for the compound listed here: COc1ccc(OC)c(-c2nc3sccn3c2/C=C2/C(=O)Nc3ccccc32)c1
Response: 1.47

Prompt: Consider the compound N#CC1=C(N)Oc2c(sc3c(F)cccc23)C1c1ccc([N+](=O)[O-])cc1 (stereo not given) and give its recorded log10(TGI).
Response: 0.09

Prompt: Return log10(TGI) (reported value) for this compound: Nc1nc(Nc2ccc(Cl)cc2)sc1C(=O)c1cc2ccccc2oc1=O
Response: 1.88

Prompt: Specify measured log10(TGI) for COC(=O)C1=NN2c3ccccc3CN([C@@H](C)c3ccccc3)C(=O)[C@@H]2C1 .
Response: 1.87

###

Below, each of the molecules is paired with its reported TGI value.
system: ACHN renal; test: NCI tumour cell line growth inhibition, 48 h

# annotated cases, reported TGI shown
Cc1ccc(NC(=O)SCCC(=O)O)cc1NC(=O)SCCC(=O)O: > 100 µM
COc1cc2cc(C(=O)O)[nH]c2cc1OCc1ccccc1: > 100 µM
C[C@]12CC[C@@H]3c4ccc(O)cc4CC[C@H]3[C@@H]1CC[C@@H]2NS(=O)(=O)c1cccc(Br)c1: 8.61 µM
NC(N)=NC(N)=NCCc1ccccc1: > 100 µM
O=C(c1cccs1)c1c(C(F)(F)F)n([O-])c2cc(F)c(F)cc2[n+]1=O: 1.4 µM
CC(=O)OCCn1c(Cc2ccc([N+](=O)[O-])cc2)nn(C(C)=O)c1=O: > 100 µM
COC(=O)c1c2c(c(C)[n+]([O-])c1C)C(=O)C(NCc1ccc(F)c(Cl)c1)=CC2=O: 7.9 µM
Nc1ncnc2c1ncn2CC(OCP(=O)(O)O)Oc1ccccc1 (stereo not given): > 100 µM

Prompt: Supply reported TGI belonging to this molecule: C[n+]1c2ccccc2c(NC(CCC(N)=O)C(=O)O)c2ccccc21 (stereo not given)
Response: > 100 µM

Prompt: Output measured TGI for this item: Nc1nc(N)c(-c2ccccc2)c(C(=O)Nc2ccc(Cl)c(Cl)c2)n1
Response: > 100 µM
